From: PubChem BioAssay (NCI)

system: BT-549 breast; assay: NCI-60 one-dose screen, 48 h (100 = growth as untreated, 0 = no growth, -100 = all killed); settings: 10 µM unless noted
About 83,000 compounds went through this panel and 20% of them were active in at least one assay; those are over-represented in the sample as a whole.
Label rule not met if growth falls below 80%; label rule met in every other case.

Solved entries:
>>> category("COC(=O)c1nc(-c2ccccc2)oc1S(=O)(=O)n1nc(C)cc1N")
"rule not met"
>>> category("Nc1ccccc1NC(=O)c1ccc(CSc2nc(N3CCOCC3)c3cccn3n2)cc1")
"rule not met"
>>> category("CC(C)(C)c1nc2c(s1)c1nc(N)ncc1c1ccc(NS(=O)(=O)c3c(F)cccc3F)c(F)c12")
"rule not met"
>>> category("CCOC(=O)c1c(C(F)(F)F)n([O-])c2ccc(Cl)cc2[n+]1=O")
"rule not met"

// inclusive: growth at least 80%? input: `COc1ccc([C@H]2[C@@H](F)C(=O)N2c2cc(OC)c(OC)c(OC)c2)cc1F`
rule not met

// inclusive: growth at least 80%? input: `C=C1C(=O)O[C@H]2[C@H]1CC/C(COC(=O)CCCCCCC(=O)OC/C1=C/CC[C@@]3(C)O[C@H]3[C@H]3OC(=O)C(=C)[C@@H]3CC1)=C\CC[C@@]1(C)O[C@@H]21`
rule not met

// inclusive: growth at least 80%? input: `COc1ccc(N(C)c2nc(Cl)nc3ccn(C)c23)cc1`
rule not met

// inclusive: growth at least 80%? input: CC(=O)Nc1c(C(=O)Nc2ccccc2)sc2nc3c(cc12)C(OC(C)=O)CCC3 (stereo not given)
rule met
